# key: entry, value: TGI
Test system: SNB-75 CNS
Assay: NCI tumour cell line growth inhibition, 48 h

- compound: "S=C(NCc1ccccc1)Nc1sc(=NCc2ccccc2)nc2sc3c(c12)CCN(N1CCc2c(sc4nc(=NCc5ccccc5)sc(NC(=S)NCc5ccccc5)c24)C1)C3"
  test_readout: "TGI"
  measured_result: "> 64.9 µM"

The measured TGI associated with COC(=O)C1=C(C)NC(=O)N2[C@@H](CCOCc3ccccc3)CC[C@@H]12 reads > 50 µM

The measured TGI associated with CC(Oc1ccc2c(-c3ccc(Cl)cc3)cc(=O)oc2c1)C(=O)O (stereo not drawn) reads > 100 µM
